# Test system: KU812 (Chronic Myelogenous Leukemia)
# ASSAY_EXPLANATION: combination Emax (second highest fraction inhibited in the dose matrix, 72 h); higher = more inhibition; extreme values may be limits of the assay
ASSAY_METRIC: combination Emax
No unit in the answer, only the number.

Please give the measured combination Emax for this compound: C=CCn1c(=O)c2cnc(Nc3ccc(N4CCN(C)CC4)cc3)nc2n1-c1cccc(C(C)(C)O)n1 [AZD1775] + Nc1ccn([C@@H]2O[C@H](CO)[C@@H](O)C2(F)F)c(=O)n1 [Gemcitabine] (first compound max 1 µM, partner max 0.3 µM)
0.836

Would you mind doing Cc1c2c(nn1C)CSCc1cc(n(C)n1)CSc1cc(c3ccccc3c1)OCCCc1c(C(=O)O)n(C)c3c-2c(Cl)ccc13 [AZD5991] + CC1(C)CCC(CN2CCN(c3ccc(C(=O)NS(=O)(=O)c4ccc(NCC5CCOCC5)c([N+](=O)[O-])c4)c(Oc4cnc5[nH]ccc5c4)c3)CC2)=C(c2ccc(Cl)cc2)C1 [Venetoclax] (first compound max 1 µM, 7x7, partner max 1 µM) as well?
0.902

Would you mind doing CN(CCO)CC[C@H](CSc1ccccc1)Nc1ccc(S(=O)(=O)NC(=O)c2ccc(N3CCC([C@@H](O)c4ccccc4-c4ccc(Cl)cc4)CC3)cc2)cc1S(=O)(=O)C(F)(F)F [AZD4320] + CN(C)CCCOc1ccc(-c2ccc3ncc4c(c3c2)n(C2CCOCC2)c(=O)n4C)cn1 [AZD0156] (first compound max 1 µM, 7x7, partner max 1 µM) as well?
0.751

###

# System: HCC1187 (Breast Carcinoma)
# ASSAY_EXPLANATION: combination Emax (second highest fraction inhibited in the dose matrix, 72 h); higher = more inhibition; extreme values may be limits of the assay
ASSAY_METRIC: combination Emax
No unit in the answer, only the number.

Please give the measured combination Emax for this molecule: Cc1c2c(nn1C)CSCc1cc(n(C)n1)CSc1cc(c3ccccc3c1)OCCCc1c(C(=O)O)n(C)c3c-2c(Cl)ccc13 [AZD5991] + Cc1cc2ncnn2cc1Nc1ncc2c(n1)n(C1CCOCC1)c(=O)n2C [AZD7648] (first compound max 1 µM, 7x7, partner max 10 µM)
1

Would you mind doing CCc1c2c(nc3ccc(O)cc13)-c1cc3c(c(=O)n1C2)COC(=O)[C@]3(O)CC [SN-38] + O=C(c1cc(Cc2n[nH]c(=O)c3ccccc23)ccc1F)N1CCN(C(=O)C2CC2)CC1 [Olaparib] (first compound max 0.3 µM, 7x7, partner max 10 µM) as well?
0.467

Would you mind doing CC1(C)CCC(CN2CCN(c3ccc(C(=O)NS(=O)(=O)c4ccc(NCC5CCOCC5)c([N+](=O)[O-])c4)c(Oc4cnc5[nH]ccc5c4)c3)CC2)=C(c2ccc(Cl)cc2)C1 [Venetoclax] + C[C@@H]1COCCN1C2=NC(=NC(=C2)C3(CC3)[S@](=N)(=O)C)C4=C5C=CNC5=NC=C4 [AZD6738] (first compound max 1 µM, 7x7, partner max 10 µM) as well?
0.501

Would you mind doing CN(CCO)CC[C@H](CSc1ccccc1)Nc1ccc(S(=O)(=O)NC(=O)c2ccc(N3CCC([C@@H](O)c4ccccc4-c4ccc(Cl)cc4)CC3)cc2)cc1S(=O)(=O)C(F)(F)F [AZD4320] + Cc1cc2ncnn2cc1Nc1ncc2c(n1)n(C1CCOCC1)c(=O)n2C [AZD7648] (first compound max 1 µM, 7x7, partner max 10 µM) as well?
0.114

Would you mind doing CC1(C)CCC(CN2CCN(c3ccc(C(=O)NS(=O)(=O)c4ccc(NCC5CCOCC5)c([N+](=O)[O-])c4)c(Oc4cnc5[nH]ccc5c4)c3)CC2)=C(c2ccc(Cl)cc2)C1 [Venetoclax] + Cc1cc2ncnn2cc1Nc1ncc2c(n1)n(C1CCOCC1)c(=O)n2C [AZD7648] (first compound max 1 µM, 7x7, partner max 10 µM) as well?
0.142

Would you mind doing Cc1cc2ncnn2cc1Nc1ncc2c(n1)n(C1CCOCC1)c(=O)n2C [AZD7648] + O=C(c1cc(Cc2n[nH]c(=O)c3ccccc23)ccc1F)N1CCN(C(=O)C2CC2)CC1 [Olaparib] (first compound max 10 µM, 7x7, partner max 10 µM) as well?
0.294

Would you mind doing NC1(C(=O)N[C@@H](CCO)c2ccc(Cl)cc2)CCN(c2ncnc3[nH]ccc23)CC1 [Capivasertib] + Cn1cnc2c(F)c(Nc3ccc(Br)cc3Cl)c(C(=O)NOCCO)cc21 [Selumetinib] (first compound max 10 µM, 7x7, partner max 10 µM) as well?
0.296
